# Tested on: K562 CRISPRi cells
# test_name: Constant region variant library pooled growth screen, K562
# Assay type: cell-based, human
# experimental_setup: sgRNA constant region variants; relative to the original, un-modified constant region cr995; CRISPRi
test_readout: Mean relative activity
Give only the figure.

Here's what some known entries look like.
cr569 (nucleic acid, listed as DNA, chemistry not fully specified) guide: GTTTAAGAGCTAAGCTGGAAACAGCATGGCAAGTTTAAATAAGGCTCGTCCGTTATGAACTTGAAAAAGTGGCACCGAGTCGGTGCT: 0.3992
cr530 (nucleic acid, listed as DNA, chemistry not fully specified) guide: GTTTAAGAGCTAAGCTGGAAACAGCATAGCAAGTTTAAATAAGGCTAGCCCGATATCAACTTGAACAAGTGGCACCGAGTCGGTGCT: 0.4998
cr003 (nucleic acid, listed as DNA, chemistry not fully specified) guide: TTTTAAGAGCTAAGCTGGAAACAGCATAGCAAGTTTAAATAAGGCTAGTCCGTTATCAACTTGAAAAAGTGGCACCGAGTCGGTGCT: 0.3678

// moving on: another record for Mean relative activity
In plain terms, cr120 (nucleic acid, listed as DNA, chemistry not fully specified) guide: GTTTAAGAGCTAAGCTGGAAACAGCATAGCAAGTTTAAATAAGGCTAGTCCGTTATCAACTTGAGAAAGTGGCACCCAGTGGGTGCT has a documented Mean relative activity of 0.5005
